Tested on: MCF-10A
Assay: Antiproliferative activity against human MCF10A cells assessed as reduction in cell viability incubated for 72 hrs by MTT assay
Assay type: functional, cell-based
IC50 reference
Measure: IC50

- Compound: "CS(=O)(=O)c1ccc(C2C(c3ccc(Cl)cc3)=NOC23Cc2ccccc2C3=O)cc1 (configuration not stated)"
  Result: "22.5 µM"
- Compound: "CS(=O)(=O)c1ccc(C2C(c3ccccc3)=NOC23Cc2ccccc2C3=O)cc1 (configuration not stated)"
  Result: "> 100 µM"
- Compound: "Cc1ccc(C2=NOC3(Cc4ccccc4C3=O)C2c2ccc(S(C)(=O)=O)cc2)cc1 (configuration not stated)"
  Result: "> 100 µM"
- Compound: "COc1ccc(C2=NOC3(Cc4ccccc4C3=O)C2c2ccc(S(C)(=O)=O)cc2)cc1OC (configuration not stated)"
  Result: "> 100 µM"
- Compound: "COc1ccc(C2=NOC3(Cc4ccccc4C3=O)C2c2ccc(S(C)(=O)=O)cc2)cc1 (configuration not stated)"
  Result: "> 100 µM"
- Compound: "COc1cc(C2=NOC3(Cc4ccccc4C3=O)C2c2ccc(S(C)(=O)=O)cc2)cc(OC)c1OC (configuration not stated)"
  Result: "> 100 µM"
- Compound: "CS(=O)(=O)c1ccc(C2C(c3ccc(F)cc3)=NOC23Cc2ccccc2C3=O)cc1 (configuration not stated)"
  Result: "3.21 µM"

====

System: HEK293
Experiment: Cytotoxicity against human HEK293 cells assessed as reduction in cell viability incubated for 72 hrs by MTT assay
Format: cell-based
Conditions: HEK293, 72 h
pIC50: −log10 of the molar value.
pIC50 reference

- Compound: "Cc1ccc(C2=NOC3(Cc4ccccc4C3=O)C2c2ccc(S(C)(=O)=O)cc2)cc1 (configuration not stated)"
  Tested target: "HEK293"
  Qualifier: "="
  pIC50: 4.08
- Compound: "COc1ccc(C2=NOC3(Cc4ccccc4C3=O)C2c2ccc(S(C)(=O)=O)cc2)cc1 (configuration not stated)"
  Tested target: "HEK293"
  Qualifier: "<"
  pIC50: 4.00
- Compound: "CS(=O)(=O)c1ccc(C2C(c3ccc(Cl)cc3)=NOC23Cc2ccccc2C3=O)cc1 (configuration not stated)"
  Tested target: "HEK293"
  Qualifier: "="
  pIC50: 4.42
- Compound: "CS(=O)(=O)c1ccc(C2C(c3ccccc3)=NOC23Cc2ccccc2C3=O)cc1 (configuration not stated)"
  Tested target: "HEK293"
  Qualifier: "<"
  pIC50: 4.00
- Compound: "COc1ccc(C2=NOC3(Cc4ccccc4C3=O)C2c2ccc(S(C)(=O)=O)cc2)cc1OC (configuration not stated)"
  Tested target: "HEK293"
  Qualifier: "<"
  pIC50: 4.00
- Compound: "CS(=O)(=O)c1ccc(C2C(c3ccc(F)cc3)=NOC23Cc2ccccc2C3=O)cc1 (configuration not stated)"
  Tested target: "HEK293"
  Qualifier: "="
  pIC50: 6.19
- Compound: "COc1cc(C2=NOC3(Cc4ccccc4C3=O)C2c2ccc(S(C)(=O)=O)cc2)cc(OC)c1OC (configuration not stated)"
  Tested target: "HEK293"
  Qualifier: "="
  pIC50: 4.15

====

System: HT-29
Experiment: Antiproliferative activity against human HT-29 cells assessed as reduction in cell viability incubated for 72 hrs by MTT assay
Assay type: functional, cell-based
Details: HT-29, 72 h
pIC50: −log10 of the molar value.

- Molecule: "CS(=O)(=O)c1ccc(C2C(c3ccccc3)=NOC23Cc2ccccc2C3=O)cc1 (stereo unspecified)"
  pIC50: 3.62
- Molecule: "CC[C@]1(O)C[C@H]2CN(CCc3c([nH]c4ccccc34)[C@@](C(=O)OC)(c3cc4c(cc3OC)N(C=O)[C@H]3[C@@](O)(C(=O)OC)[C@H](OC(C)=O)[C@]5(CC)C=CCN6CC[C@]43[C@@H]65)C2)C1"
  pIC50: 5.76
- Molecule: "CC[C@]1(O)C[C@@H]2CN(CCc3c([nH]c4ccccc34)[C@@](C(=O)OC)(c3cc4c(cc3OC)N(C)[C@H]3[C@@](O)(C(=O)OC)[C@H](OC(C)=O)[C@]5(CC)C=CCN6CC[C@]43[C@@H]65)C2)C1"
  pIC50: 5.50
- Molecule: "CS(=O)(=O)c1ccc(C2C(c3ccc(Cl)cc3)=NOC23Cc2ccccc2C3=O)cc1 (stereo unspecified)"
  pIC50: 4.00
- Molecule: "COc1cc(C2=NOC3(Cc4ccccc4C3=O)C2c2ccc(S(C)(=O)=O)cc2)cc(OC)c1OC (stereo unspecified)"
  pIC50: 3.95
- Molecule: "Cc1ccc(-c2cc(C(F)(F)F)nn2-c2ccc(S(N)(=O)=O)cc2)cc1"
  pIC50: 4.75
- Molecule: "CS(=O)(=O)c1ccc(C2C(c3ccc(F)cc3)=NOC23Cc2ccccc2C3=O)cc1 (stereo unspecified)"
  pIC50: 4.26
- Molecule: "COc1ccc(C2=NOC3(Cc4ccccc4C3=O)C2c2ccc(S(C)(=O)=O)cc2)cc1 (stereo unspecified)"
  pIC50: 4.16
- Molecule: "COc1cccc2c1C(=O)c1c(O)c3c(c(O)c1C2=O)C[C@@](O)(C(=O)CO)C[C@@H]3O[C@H]1C[C@H](N)[C@H](O)[C@H](C)O1"
  pIC50: 5.80
- Molecule: "Cc1ccc(C2=NOC3(Cc4ccccc4C3=O)C2c2ccc(S(C)(=O)=O)cc2)cc1 (stereo unspecified)"
  pIC50: 4.14
- Molecule: "COc1ccc(C2=NOC3(Cc4ccccc4C3=O)C2c2ccc(S(C)(=O)=O)cc2)cc1OC (stereo unspecified)"
  pIC50: 4.36
